method.notes: yeast display, Sf9 membrane polyspecificity reagent, FACS + sequencing; frameworks hold sequencing errors
quantity.measured: polyreactivity (PSR sort gate)

These recorded examples may help you get a feel for the data.
chain.sequence	polyreactivity (PSR sort gate)
QVQLVESGGGLVQAGGSLRLSCAASGRTFLRYAMGWYRQAPRKERELVAAISVSGASTNYADSVKGRFTISRDYAKNTVYLQMNSLKPEDTAVYYCAARVADYDGVPLYRHGDYWGQGTQVTVSS	low polyreactivity
QVQLVESGGGLVQAGGSLRLSCAASGNTFTRNAMGWYRQAPGKERELVAAISYSGGSTYYADSVKGRFTISRDNAKNTVYLQMNSLKPEDTAVYYCATKYYDRFSPYRGDYWGQGTQVTVSS	low polyreactivity
QVQLVESGGGLVQAGGSLRLSCAASGLTLRRYAMGWYRQAPGKERELVASINSGTSTKYADSVKGRFTISRDNAKNTVYLQMNSLKPEDTAVYYCAAAGYFPTAGSRRAYYYWGQGTQVTVSS	high polyreactivity
QVQLVESGGGLVQAGGSLSLTCAASGSIFRYYAMGWYRQAPGKERELVADITSSGGSTYYADSVKGRFTISRDNAKNTDYLQMNSLKPEDTAVYYCAALYWFYVYPFTEYDYWGQGTQVTVSS	low polyreactivity
QVQLVESGGGLVQAGGSLRLSCAASGRTSYSNAMGWYRQAPGKERELVAAISGSGVRTYYADSVKGRFTISRDNAKNTVYLQMNSLKPEDTAVYYCAAAGRYPALYGYWGQGTQVTVSS	high polyreactivity
QVQLVESGGGLVQAGVSLRLSCAASGFIIYGNAMGWYRQAPGKERELVAAINQTGSSTYADSVKGRFTISRDNAKNTVYLQMNSLKPEATAVYYCNKGSWYFFLYDYWGQGTQVTVSS	low polyreactivity

Record summary for QVQLVESGGGLVQAGGSLRLSCAASGFIFADYAMGWYRQAPGKARELVAAINRGASTYYADSVKGRFSISRDNAKNTVYFQMNSLKPEDTAVYYCAAAGYSRGGRGGYWGHGTQVTVSS : reported polyreactivity (PSR sort gate) = high polyreactivity

Record summary for KVQLVESGGGLVQAGGRLRLSCAASGGTFVINVMGWYRQAPGKERELVAAISWNGDSTYYADSVKGRFTISRDNAKNTVYLQMNSLKPEDTAVYYCATDTWRVYYAYWQFGVWELGYWGQGTQVTVSS : reported polyreactivity (PSR sort gate) = low polyreactivity

Record summary for QVQLEESAGGLVQAGGSLRLSCAASGSSFTSYAMGWYRQAPGKERELVAAITSGGSTTYADSVKGRFTISRDNEKNTVYLQMNSLKPEDTAVYYCNAKWYGYLTRDAYRYRYTYDYWGQGTQVTVSS : reported polyreactivity (PSR sort gate) = low polyreactivity

Record summary for QVPLVESGGGIVQAGGSLRLSCAASGRTFRYNAMGWDRQAPGKEREKVAAITYGGGSTYYADSVKGRFTISRDNEKNTVYLQMNILKPEDTAVYYCATRGVSPSRPGYYCGQGTQVTVSS : reported polyreactivity (PSR sort gate) = high polyreactivity

Record summary for QVQLVESGGGLVQAGGSLRLSCAASGLTFTGYAMGWYRQAPGKERELVASISSRGGSTYYADSVKGRFTISRDNAKITVYLQMNSLKPEDTAVYYCNAVYRGYYSGELDYWGQGTQVTVSS : reported polyreactivity (PSR sort gate) = high polyreactivity

Record summary for QVQLVESRGGLVQAGGSLRLSCAASGRTIYPYTMGCYRQAPGKERELVAAISSSGTRTYYADSVKGRFTISRDIAKNTVYLQMNSLKPEDTAVYDCATRRPGSFGYWGQGTQVTVSS : reported polyreactivity (PSR sort gate) = high polyreactivity

Record summary for QVQLVESGGGLVQAGGSLRLSCAASGRTFDGYAMGWYRQAPGKERELVAAIDGGGSTNYADSVKGRFTISRDNAKNTVYLQMNSLKPEDTAVYYCAADRGSGPGYDYWGQGTQVTVSS : reported polyreactivity (PSR sort gate) = low polyreactivity

Record summary for QVQLVESGGGLVQAGGSLRLSCAASGSTFVGYAMGWYRQAPGKERELVADITSGGGITYYADSVKGRFTISRDNAKNTVYLQMNSLKPEDTAVYYCAVQYYNVLYYQYDYWGQGTQVTVSS : reported polyreactivity (PSR sort gate) = low polyreactivity

Record summary for QVQLVESGGGLVQAGGSLRLSCAASGSTIVLNDKRCYRQAPGKERELVAAITWSGGSTYYADSVKGRFTISRDNAKNTVYLQMNSLKPEDTAVYYCNVDYYGWPYWYEYDYWGQGTQVTVSS : reported polyreactivity (PSR sort gate) = high polyreactivity

Record summary for QVQLVESGGGLVQAGGSLRLSCAASGSIISYNTMGWYRQAPGKEREFVASIRRRGGSTYYADSVKGRFTISRDNAKNTVYLQMNSLKPEDTAGYYCAKANPHYVISDGVYHPRGGYWGHGTQVTVSS : reported polyreactivity (PSR sort gate) = low polyreactivity

Record summary for QVQLVESGGGLVQAGGSLRLSCAASGRIFPYYAKGWYRQAPGKERELVAAINSGGSTYYADSVKGRFTISRDNAQNTVYLQMNSLKPEDTAVYYCIADVLYEDGFFWDDYWGQGTQVTVSS : reported polyreactivity (PSR sort gate) = low polyreactivity

Record summary for QVQLVESGGGLVQAGGSLRLSCSASGRTFGYNAMGWYRQAPGKEWELVAAIRTIGDSTYYADSVKGRFTISRDNAKNTVYLQMNSLKPEDTAVYYCAARNLRSRYDYWGQGTQVTVSS : reported polyreactivity (PSR sort gate) = high polyreactivity

Record summary for QVQLVESGGGLVQAGGSLRLSCAASGSTFGYYAMGWYRQAPGKESELVAAISAGGGSTYYADSVKGRFTISRDNAKNTVYLQLNSLKPEDTAVYFCAARRPHMPVKTYDYWGQGTLVTVSS : reported polyreactivity (PSR sort gate) = high polyreactivity

Record summary for QDQLVESGGGLVQAGGSLRLSCAASGYTFPSYAMGWYRQAPGKEREFVAAIDSSGGSTNYADSVKGRFTISRDNAKNTVYLQMNSLKPEETAVYYCAREYSSGYWVRHLFYYWGQGTKVTVSS : reported polyreactivity (PSR sort gate) = low polyreactivity

Record summary for QVQLVESGGGLVQAGGSLRLSSAASGRTFGRYAMGWYRQAPGKERELVAAITRSGSSTYYADSVKGRFTISRDNAKNTVYLQMNSLKPEDTAVYYCAALYGPFYSTGEYWGQGTQVTVSS : reported polyreactivity (PSR sort gate) = high polyreactivity

The measured values listed here are drawn from the nanobody polyreactivity screen of Harvey et al. (2022).
